Tested on: neuroblastoma SH-SY5Y cell line
Assay procedure: MTT cytotoxicity assay, SH-SY5Y
Type: cell-based
Setup conditions: 48 h, 0.1 to 100 μM
Attribute measured: IC50 (µM)
State the answer as a number, implicitly in µM.

(Q) Given the entry Clc1nc(N2CCC(N3CCCCC3)CC2)c2ncn(Cc3c(Cl)cccc3Cl)c2n1 [Compound 3h] , report its measured IC50.
(A) 32.4

====

Parameter Ki: see the listing below.
Test system: human histamine H3R (Homo sapiens)
Construct: expressed in transfected cells; host or cells: HEK-293 cells, stably expressing; membrane preparations
Sequence (Q9Y5N1 whole entry): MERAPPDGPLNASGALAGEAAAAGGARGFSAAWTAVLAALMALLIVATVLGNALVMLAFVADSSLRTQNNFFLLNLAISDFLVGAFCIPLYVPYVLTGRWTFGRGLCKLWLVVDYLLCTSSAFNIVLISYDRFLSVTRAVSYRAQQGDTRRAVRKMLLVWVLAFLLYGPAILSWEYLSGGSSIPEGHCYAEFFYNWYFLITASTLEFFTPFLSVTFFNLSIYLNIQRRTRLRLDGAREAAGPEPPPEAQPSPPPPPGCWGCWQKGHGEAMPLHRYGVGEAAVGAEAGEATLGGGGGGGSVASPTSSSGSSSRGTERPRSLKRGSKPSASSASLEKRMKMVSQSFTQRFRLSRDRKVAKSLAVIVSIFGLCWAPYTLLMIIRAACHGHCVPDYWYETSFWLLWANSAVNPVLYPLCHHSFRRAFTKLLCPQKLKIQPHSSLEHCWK
Assay procedure: Human histamine H3 radioligand displacement ([3H]Nα-methylhistamine)
Format: binding
Setup conditions: restated in Table 3; read-out: Biological Activity Ki
Dear colleague, please return just the value in nM, with no unit written.

# Smiles, Test system, Ki / nM
rows = [
    ("Clc1nc(N2CCC(N3CCCCC3)CC2)c2ncn(Cc3c(Cl)cccc3Cl)c2n1", "human histamine H3R (Homo sapiens)", 5.5),
    ("Clc1ccc(Cn2cnc3c(N4CCC(N5CCCCC5)CC4)ncnc32)cc1", "human histamine H3R (Homo sapiens)", 39.4),
    ("N#Cc1ccc(Cn2cnc3c(N4CCC(N5CCCCC5)CC4)nc(Cl)nc32)cc1", "human histamine H3R (Homo sapiens)", 77.8),
    ("N#Cc1ccc(Cn2cnc3c(N4CCC(N5CCCCC5)CC4)ncnc32)cc1", "human histamine H3R (Homo sapiens)", 28.8),
    ("Fc1ccc(Cn2cnc3c(N4CCC(N5CCCCC5)CC4)ncnc32)cc1", "human histamine H3R (Homo sapiens)", 105),
]

(Q) I would be grateful if you could share the reported Ki for Clc1ccc(Cn2cnc3c(N4CCC(N5CCCCC5)CC4)nc(Cl)nc32)cc1 .
(A) 44.6
